Would you kindly list IC50 for each of these molecules?
Test system: T. b. brucei GUTat3.1
testProtocol: In vitro trypanocidal activity (CellTiter-Glo, 3 days)
Type: cell-based
recordedConditions: Trypanosoma brucei, 72 h, bloodstream forms, 37 °C, mean ± SD of triplicate, read-out: Trypanocidal Activity IC50 ± SD, Tbb GUTat3.1
Please answer using a numeric value trailed by its unit.

Prompt: Consider the molecule shown here: CCCCCN1C(=O)CN(/N=C/c2ccc([N+](=O)[O-])o2)C1=O What is its recorded IC50?
Completion: 4.24 µM

Prompt: What value of IC50 has been reported for the following molecule? COc1ccc(CN2C(=O)CN(/N=C/c3ccc([N+](=O)[O-])o3)C2=O)cc1
Completion: 9.91 µM

Prompt: Given the molecule Cc1ccc(C(=O)Nc2ccc(S(=O)(=O)O)c3cc(S(=O)(=O)O)cc(S(=O)(=O)O)c23)cc1NC(=O)c1cccc(NC(=O)Nc2cccc(C(=O)Nc3cc(C(=O)Nc4ccc(S(=O)(=O)O)c5cc(S(=O)(=O)O)cc(S(=O)(=O)O)c45)ccc3C)c2)c1 [Suramin, reference compound] , what is its reported IC50?
Completion: 0.066 µM

Prompt: // lookup IC50 for CN1C(=O)CN(/N=C/c2ccc([N+](=O)[O-])o2)C1=O
Completion: 3.61 µM

Prompt: Bench note: what IC50 did CCCCCCCCN1C(=O)CN(/N=C/c2ccc([N+](=O)[O-])o2)C1=O show?
Completion: 1.89 µM

Prompt: Fill in: IC50 of CCCCCCCN1C(=O)CN(/N=C/c2ccc([N+](=O)[O-])o2)C1=O is ___
Completion: 2.06 µM

Prompt: Could you share which IC50 value was measured for CCCCCCCCCCCCN1C(=O)CN(/N=C/c2ccc([N+](=O)[O-])o2)C1=O ?
Completion: 0.34 µM

---

Tested on: T. b. rhodesiense IL1501
testProtocol: In vitro trypanocidal activity (CellTiter-Glo, 3 days)
Assay type: cell-based
recordedConditions: Trypanosoma brucei, 72 h, bloodstream forms, 37 °C, mean ± SD of triplicate, read-out: Trypanocidal Activity IC50 ± SD, Tbr IL1501
readoutLabel: IC50

Prompt: Checklist item: IC50 tested on T. b. rhodesiense IL1501, entry O=C1CN(/N=C/c2ccc([N+](=O)[O-])o2)C(=O)N1Cc1ccc(Br)cc1 , value?
Completion: 2.47 µM

Prompt: Query for T. b. rhodesiense IL1501: what IC50 does the record show for CN1C(=O)CN(/N=C/c2ccc([N+](=O)[O-])o2)C1=O ?
Completion: 7.02 µM

Prompt: Please tell me: IC50 of NCCCC(N)(C(=O)O)C(F)F (centres unmarked) [Eflornithine, reference compound] , system T. b. rhodesiense IL1501?
Completion: 46 µM

Prompt: Provide value of IC50 for this record tested with T. b. rhodesiense IL1501: CCCCCCCN1C(=O)CN(/N=C/c2ccc([N+](=O)[O-])o2)C1=O
Completion: 1.45 µM

Prompt: Request body: readout IC50, system T. b. rhodesiense IL1501, query O=C1CN(/N=C/c2ccc([N+](=O)[O-])o2)C(=O)N1 . Return the value.
Completion: 1.42 µM

Prompt: For T. b. rhodesiense IL1501, provide IC50 of O=C1CN(/N=C/c2ccc([N+](=O)[O-])o2)C(=O)N1Cc1ccccc1 please.
Completion: 2.83 µM

Prompt: I'm curious: which IC50 was measured for CCN1C(=O)CN(/N=C/c2ccc([N+](=O)[O-])o2)C1=O tested on T. b. rhodesiense IL1501?
Completion: 11.4 µM

Prompt: API: value(readout= IC50, system= T. b. rhodesiense IL1501, query= CC1CS(=O)(=O)CCN1/N=C/c1ccc([N+](=O)[O-])o1 (centres unmarked) [Nifurtimox, reference compound] )
Completion: 4.35 µM

---

Tested on: T. b. rhodesiense Chirundu
testProtocol: In vitro trypanocidal activity (CellTiter-Glo, 3 days)
Assay type: cell-based
recordedConditions: Trypanosoma brucei, 72 h, bloodstream forms, 37 °C, mean ± SD of triplicate, read-out: Trypanocidal Activity IC50 ± SD, Tbr Chirundu
API: label(entry) gives label 1 if the entry's IC50 is strictly smaller than 200 nM; on equality or larger values it gives label 0.

Prompt: is_below(IC50, 200 nM) for O=C1CN(/N=C/c2ccc([N+](=O)[O-])o2)C(=O)N1Cc1ccc(Br)cc1 [Analog 19] ?
Completion: label 1

Prompt: Please determine if CCCCCCCCCN1C(=O)CN(/N=C/c2ccc([N+](=O)[O-])o2)C1=O [Analog 9] is below 200 nM in terms of IC50.
Completion: label 1

Prompt: Dear colleague, could you confirm whether IC50 of N=C(N)c1ccc(OCCCCCOc2ccc(C(=N)N)cc2)cc1 [Pentamidine, reference compound] falls below 200 nM? Thanks.
Completion: label 1

Prompt: # strict comparison: is reported IC50 < 200 nM? input = CCCCCCCCCCCCN1C(=O)CN(/N=C/c2ccc([N+](=O)[O-])o2)C1=O [Analog 12]
Completion: label 1

Prompt: # TODO verify IC50 < 200 nM strictly for this compound: O=C1CN(/N=C/c2ccc([N+](=O)[O-])o2)C(=O)N1Cc1ccccc1 [Analog 14]
Completion: label 0

Prompt: For this compound, is IC50 lower than 200 nM? CCCCCCCCCCCN1C(=O)CN(/N=C/c2ccc([N+](=O)[O-])o2)C1=O [Analog 11]
Completion: label 1

Prompt: Hi there! Is IC50 for Cc1ccc(CN2C(=O)CN(/N=C/c3ccc([N+](=O)[O-])o3)C2=O)cc1 [Analog 15] below 200 nM, do you know?
Completion: label 1

Prompt: Threshold test, IC50 < 200 nM: CCCCCCN1C(=O)CN(/N=C/c2ccc([N+](=O)[O-])o2)C1=O [Analog 6]
Completion: label 1

Prompt: Quick check: does CCCCCCCCN1C(=O)CN(/N=C/c2ccc([N+](=O)[O-])o2)C1=O [Analog 8] have IC50 under 200 nM?
Completion: label 1

Prompt: Take the compound CCCCCCCCCCN1C(=O)CN(/N=C/c2ccc([N+](=O)[O-])o2)C1=O [Analog 10] and say whether its IC50 is less than 200 nM.
Completion: label 1

Prompt: Given the entry Cc1ccc(C(=O)Nc2ccc(S(=O)(=O)O)c3cc(S(=O)(=O)O)cc(S(=O)(=O)O)c23)cc1NC(=O)c1cccc(NC(=O)Nc2cccc(C(=O)Nc3cc(C(=O)Nc4ccc(S(=O)(=O)O)c5cc(S(=O)(=O)O)cc(S(=O)(=O)O)c45)ccc3C)c2)c1 [Suramin, reference compound] , would its reported IC50 be below 200 nM?
Completion: label 1

Prompt: Here's an entry: CCCCN1C(=O)CN(/N=C/c2ccc([N+](=O)[O-])o2)C1=O [Analog 4] . Is its IC50 below 200 nM?
Completion: label 0

Prompt: Please determine if O=C1CN(/N=C/c2ccc([N+](=O)[O-])o2)C(=O)N1CCCc1ccccc1 [Analog 13] is below 200 nM in terms of IC50.
Completion: label 1

Prompt: Strictly below 200 nM: is that where IC50 of CCCN1C(=O)CN(/N=C/c2ccc([N+](=O)[O-])o2)C1=O [Analog 3] sits?
Completion: label 0

Prompt: Say whether its IC50 is strictly beneath 200 nM. Entry: NCCCC(N)(C(=O)O)C(F)F (stereo not shown) [Eflornithine, reference compound]
Completion: label 0

Prompt: IC50 strictly < 200 nM for this compound? CCCCCCCN1C(=O)CN(/N=C/c2ccc([N+](=O)[O-])o2)C1=O [Analog 7]
Completion: label 1

---

System: T. b. brucei GUTat3.1
testProtocol: In vitro trypanocidal activity (CellTiter-Glo, 3 days)
Type: cell-based
recordedConditions: Trypanosoma brucei, 72 h, bloodstream forms, 37 °C, mean ± SD of triplicate, read-out: Trypanocidal Activity IC50 ± SD, Tbb GUTat3.1
Protocol: The bloodstream forms of T. b. brucei GUTat3.1, T. b. rhodesiense IL1501, T. b. rhodesiense Chirundu, T. b. gambiense IL1922, and T. evansi Tansui strains were propagated in culture at 37 °C, whereas the T. congolense IL3000 strain was propagated at 33 °C in Hirumi’s modified Iscove’s medium-9, supplemented with 20% heat-inactivated fetal bovine serum. […] The trypanocidal activity and cytotoxicity of nitrofurantoin analogs were evaluated according to previous reports, with some modifications. […]
Kindly state log10 IC50 for each of the entries shown.
Plainly stated, the numbers are log10 of IC50 given in µM.

Prompt: Requested read-out: log10 IC50. Entry: O=C1CN(/N=C/c2ccc([N+](=O)[O-])o2)C(=O)N1Cc1ccccc1
Completion: 0.46

Prompt: So what's the measured log10 IC50 for this one? CCCN1C(=O)CN(/N=C/c2ccc([N+](=O)[O-])o2)C1=O
Completion: 1.15

Prompt: # query: log10 IC50 of entry CCCCCCCCCN1C(=O)CN(/N=C/c2ccc([N+](=O)[O-])o2)C1=O
Completion: -0.24

Prompt: // returns reported log10 IC50 for input CCCCN1C(=O)CN(/N=C/c2ccc([N+](=O)[O-])o2)C1=O
Completion: 1.52

Prompt: Recorded log10 IC50 of NCCCC(N)(C(=O)O)C(F)F (centres unmarked) [Eflornithine, reference compound] , please.
Completion: 1.59

Prompt: Could you share which log10 IC50 value was measured for O=C1CN(/N=C/c2ccc([N+](=O)[O-])o2)C(=O)N1Cc1ccc(C(F)(F)F)cc1 ?
Completion: -0.28

Prompt: State the recorded log10 IC50 for this entry: O=C1CN(/N=C/c2ccc([N+](=O)[O-])o2)C(=O)N1Cc1ccc(Br)cc1
Completion: 0.33

Prompt: Find the recorded log10 IC50 belonging to CCN1C(=O)CN(/N=C/c2ccc([N+](=O)[O-])o2)C1=O and report it.
Completion: 1.03

Prompt: Any idea what its log10 IC50 is? The compound is O=C1CN(/N=C/c2ccc([N+](=O)[O-])o2)C(=O)N1Cc1ccc([N+](=O)[O-])cc1
Completion: 0.03

Prompt: Quick check: log10 IC50 of O=C1CN(/N=C/c2ccc([N+](=O)[O-])o2)C(=O)N1CCCc1ccccc1 ?
Completion: 0.86

Prompt: Recorded log10 IC50 for CCCCCCN1C(=O)CN(/N=C/c2ccc([N+](=O)[O-])o2)C1=O , please?
Completion: 0.76

Prompt: What value of measured log10 IC50 is listed for N=C(N)c1ccc(OCCCCCOc2ccc(C(=N)N)cc2)cc1 [Pentamidine, reference compound] ?
Completion: -1.39

Prompt: Look up log10 IC50: O=C1CN(/N=C/c2ccc([N+](=O)[O-])o2)C(=O)N1
Completion: 0.15

Prompt: I'd like to know its log10 IC50. The compound in question is CCCCCCCCCCN1C(=O)CN(/N=C/c2ccc([N+](=O)[O-])o2)C1=O
Completion: -0.19

Prompt: I am curious: what log10 IC50 value has been reported for CCCCCCCCCCCN1C(=O)CN(/N=C/c2ccc([N+](=O)[O-])o2)C1=O ?
Completion: -0.48

Prompt: Quick check: log10 IC50 of Cc1ccc(CN2C(=O)CN(/N=C/c3ccc([N+](=O)[O-])o3)C2=O)cc1 ?
Completion: 0.92

Prompt: Need log10 IC50, item CC1CS(=O)(=O)CCN1/N=C/c1ccc([N+](=O)[O-])o1 (centres unmarked) [Nifurtimox, reference compound]
Completion: 0.67
